Notes on IC50 obtained with His-Brd2(60-472) (Homo sapiens (Human)).
Sequence (P25440 60-472): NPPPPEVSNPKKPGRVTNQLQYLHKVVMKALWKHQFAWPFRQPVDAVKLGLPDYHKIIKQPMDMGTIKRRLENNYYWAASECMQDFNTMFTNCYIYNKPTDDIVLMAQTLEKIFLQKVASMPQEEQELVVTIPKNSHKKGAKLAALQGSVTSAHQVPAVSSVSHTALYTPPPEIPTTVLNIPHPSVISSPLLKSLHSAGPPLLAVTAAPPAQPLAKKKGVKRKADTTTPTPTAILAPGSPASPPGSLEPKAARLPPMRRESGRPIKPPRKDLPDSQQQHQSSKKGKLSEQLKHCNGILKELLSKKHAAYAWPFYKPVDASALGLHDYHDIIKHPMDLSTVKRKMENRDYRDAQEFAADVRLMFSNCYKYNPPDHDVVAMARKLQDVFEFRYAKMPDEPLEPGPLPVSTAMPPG
Measurement Label: IC50 (nM)

Example cases with answers are listed next.
- COc1ncc(-n2nc3c(c2C)C(c2ccc(Cl)cc2)N(c2cc(Cl)c(=O)n(C)c2)C3=O)c(OC)n1 (stereo not shown) [Example 55]: 98
- COc1ncc(-n2nc3c(c2C(C)C)C(c2ccc(Cl)cc2)N(c2cc(C)c4onc(C)c4c2)C3=O)c(OC)n1 (stereo not shown) [Example 46]: 130
- CCc1nn(CCO)c2c1C(c1ccc(Cl)cc1)N(c1cc(C)c(=O)n(C)c1)C2=O (stereo not shown) [Example 78]: 79
- Cc1nn(-c2ccnn2C)c2c1C(c1ccc(Cl)cc1)N(c1cc(C)c3nnc(C)n3n1)C2=O (stereo not shown) [Example 114]: 35
- Cc1nn(-c2ccnn2C)c2c1[C@H](c1ccc(Cl)cc1)N(c1cc(C)c3nnc(C)n3c1)C2=O [Example 124]: 29000

a. Cn1cc(N2C(=O)c3nn(C4CC4)c(C(F)(F)F)c3C2c2ccc(Cl)cc2)cc(Cl)c1=O (stereo not shown) [Example 40]
b. COc1ncccc1-n1nc(C)c2c1C(=O)N(c1cc(C)c(=O)n(C)c1)C2c1ccc(Cl)cc1 (stereo not shown) [Example 71]
Compare IC50: is it lower for a or for b ? In your reply, give the label of the chosen option.
b

----------
Assayed System: His-Brd3(20-477) (Homo sapiens (Human), UniProt Q15059)
Sequence (Q15059 20-477): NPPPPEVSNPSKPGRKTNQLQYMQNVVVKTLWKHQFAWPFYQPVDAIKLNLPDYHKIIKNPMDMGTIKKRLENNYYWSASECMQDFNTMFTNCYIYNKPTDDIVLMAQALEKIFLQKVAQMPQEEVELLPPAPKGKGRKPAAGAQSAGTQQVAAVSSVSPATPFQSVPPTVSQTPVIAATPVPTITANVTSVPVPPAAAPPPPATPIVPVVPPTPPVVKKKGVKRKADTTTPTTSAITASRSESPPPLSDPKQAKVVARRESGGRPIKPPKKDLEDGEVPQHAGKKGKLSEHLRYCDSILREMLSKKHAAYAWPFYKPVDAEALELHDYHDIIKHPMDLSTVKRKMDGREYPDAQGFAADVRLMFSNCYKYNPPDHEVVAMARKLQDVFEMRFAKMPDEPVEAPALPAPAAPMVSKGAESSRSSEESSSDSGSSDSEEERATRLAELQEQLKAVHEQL
pIC50: −log10 of the molar value.
Measurement Label: pIC50

Known pIC50 results, listed for orientation:
* Cc1nn(C2CC2)c2c1[C@@H](c1ccc(Cl)cc1)N(c1cc(C)c3nnc(C)n3c1)C2=O | 7.77
* CC(C)n1ncc2c1C(=O)N(c1cc(Cl)c(=O)n(C)c1)C2c1ccc(Cl)cc1 (stereo not shown) | 7.12
* Cc1nn(C(=O)N(C)C)c2c1C(c1ccc(Cl)cc1)N(c1cc(C)c(=O)n(C)c1)C2=O (stereo not shown) | 6.82
* COc1ncc(-n2nc3c(c2C)C(c2ccc(Cl)cc2)N(c2cc(C)c(=O)n(C)c2)C3=O)c(OC)n1 (stereo not shown) | 7.21
* Cc1nn(C(C)C)c2c1C(c1ccc(Cl)cc1)N(c1cc(Cl)c(=O)n(C)c1)C2=O (stereo not shown) | 6.96

1. Cc1cc(N2C(=O)c3nn(C4COC4)c(C)c3C2c2ccc(Cl)cc2)cn2c(C)nnc12 (stereo not shown)
2. CCn1nc(C)c2c1C(=O)N(c1cc(C)c3nnc(C)n3c1)C2c1ccc(F)cc1F (stereo not shown)
Returns the identifier with the smallest measured pIC50 among 1 and 2 . Record your answer as the label of the chosen record.
1
(1: 6.89, 2: 7.40)

----------
Assayed System: His-Brd3(20-477) (Homo sapiens (Human), UniProt Q15059)
Experimental Details: TR-FRET in-vitro binding assay for BRD3
Conditions: biochemical
pIC50: −log10 of the molar value.
Measurement Label: pIC50

• Cc1nn(-c2cncn2C)c2c1C(c1ccc(Cl)cc1)N(c1cc(C)c(=O)n(C)c1)C2=O (stereo not shown) = 7.01

I. Cn1cc(N2C(=O)c3c(cnn3C3CC3)C2c2ccc(Cl)cc2)cc(Cl)c1=O (stereo not shown)
II. Cc1nn(C2CC2)c2c1C(c1ccc(Cl)cc1F)N(c1cc(C)c(=O)n(C)c1)C2=O (stereo not shown)
III. Cn1cc(N2C(=O)c3c(c(C(F)(F)F)nn3C3CC3)C2c2ccc(Cl)cc2)cc(Cl)c1=O (stereo not shown)
Which order do these items take when sorted by rising pIC50? List them. # answer = labels listed in requested order
III, I, II
(III: 6.55, I: 6.80, II: 7.05)

Values compiled from patent US8975417B2.
